- protocolSummary: Particle size and PDI of nucleic acid lipid nanoparticle preparations by dynamic light scattering
- Assay type: physicochemical
- conditionInfo: DMG-PEG2000:DSPC:Chol:compound 1.00:10.00:33.00:56.00, N/P 42
So basically, if Particle size (nm) comes in under 100 nm it's met, and if it's 100 nm or more it's not met.

Is 100 nm strictly greater than the compound's reported Particle size (nm)? compound: CCCCCCCCCCCCNCC(O)CN(CCCCCN(C)CCCCCN(CC(O)CNCCCCCCCCCCCC)CC(O)C(=O)NCCCCCCCCCCCC)CC(O)C(=O)NCCCCCCCCCCCC (centres unmarked)
not met

Item CCCCCCC(CCCCCC)C(=O)OCCCCCCOC(=O)C(O)CN(CCCN(C)CCCN(CC(O)C(=O)OCCCCCCOC(=O)C(CCCCCC)CCCCCC)CC(O)C(=O)OCCCCCCOC(=O)C(CCCCCC)CCCCCC)CC(O)C(=O)OCCCCCCOC(=O)C(CCCCCC)CCCCCC (centres unmarked) : Particle size (nm) beneath 100 nm, strictly?
not met

Please state whether Particle size (nm) is below 100 nm for CCCCCCC(CCCCCC)C(=O)OCCCCCCOC(=O)C(O)CN(C)CCN(C)CCN(C)CC(O)C(=O)OCCCCCCOC(=O)C(CCCCCC)CCCCCC (centres unmarked)
not met

For this compound, is Particle size (nm) lower than 100 nm? CCCCCCCCCCOC(=O)C(O)CN(CCCN(C)CCCN(CC(O)C(=O)OCCCCCCCCCC)CC(O)C(=O)OCCCCCCCCCC)CC(O)C(=O)OCCCCCCCCCC (centres unmarked)
met

---

- protocolSummary: Particle size and PDI of nucleic acid lipid nanoparticle preparations by dynamic light scattering
- Format: physicochemical
- conditionInfo: DMG-PEG2000:DSPC:Chol:compound 1.40:11.15:38.95:48.50, N/P 20
Kindly supply the reported Particle size (nm) values for the records listed here.

# per-item lookup of Particle size (nm); items listed below
1. CCCCCCCCCCNC(=O)C(O)CN(CCOCCOCCN(CC(O)C(=O)NCCCCCCCCCC)CC(O)C(=O)NCCCCCCCCCC)CC(O)C(=O)NCCCCCCCCCC (stereo not drawn)
2. CCCCCCCCCCCCNC(=O)C(O)CN(CCCCCN(CC(O)C(=O)NCCCCCCCCCCCC)CC(O)C(=O)NCCCCCCCCCCCC)CC(O)C(=O)NCCCCCCCCCCCC (stereo not drawn)

["94.88 nm", "178.57 nm"]

May I ask what Particle size (nm) has been recorded for CCCCCCCCCCCCNC(=O)C(O)CN(CCOCCN(CC(O)C(=O)NCCCCCCCCCCCC)CC(O)C(=O)NCCCCCCCCCCCC)CC(O)C(=O)NCCCCCCCCCCCC (stereo not drawn) ?
84.96 nm

---

- protocolSummary: Particle size and PDI of nucleic acid lipid nanoparticle preparations by dynamic light scattering
- Format: physicochemical
- conditionInfo: DMG-PEG2000:DSPC:Chol:Lipid 1.40:11.15:38.95:48.50, N/P 30, mRNA LNP
- Protocol: The 7.5 μL nucleic acid lipid nanoparticle solution (containing approximately 0.04 mg/mL mRNA) was taken and added with 200 μL ultrapure water, mixed by gentle blowing using a pipette tip, and the particle size of the nanopreparation was detected by dynamic lightscattering (DLS) using a Malvern Dynamic Light Scattering Instrument (Malvern Instruments Ltd., ZEN3700, UK). […]
So I've got a bunch of compounds here, and I need their Particle size values.
Numbers only, in nm.

CCCCCCCCCCCCNC(=O)C(O)CN(CCCN(CCCCO)CCCN(CC(O)C(=O)NCCCCCCCCCCCC)CC(O)C(=O)NCCCCCCCCCCCC)CC(O)C(=O)NCCCCCCCCCCCC (stereo not drawn) [Compound L0282]; 85.38
CCCCCCCCCCCCNC(=O)C(O)CN(CCCN(CCO)CCCN(CC(O)C(=O)NCCCCCCCCCCCC)CC(O)C(=O)NCCCCCCCCCCCC)CC(O)C(=O)NCCCCCCCCCCCC (stereo not drawn) [Compound L0281]; 118.73

Continue with the next compound.
Report Particle size for CCCCCCOCOCCCCCCOC(=O)C(O)CN(C)CCN(C)CCN(C)CC(O)C(=O)OCCCCCCOCOCCCCCC (stereo not drawn) [Compound L0279] please.
150.80

---

- Test system: mice
- protocolSummary: In vivo delivery of FLuc-mRNA lipid nanoparticles in mice, in vivo imaging (IVIS)
- conditionInfo: IV, lung; DMG-PEG2000:DSPC:Chol:compound 1.40:11.15:38.95:48.50, N/P 30; Fluc-mRNA
Would you mind telling me the reported IVIS of each entry?

CCCCCCCCCCCCNCC(O)CN(CCCCCN(C)CCCCCN(CC(O)CNCCCCCCCCCCCC)CC(O)C(=O)NCCCCCCCCCCCC)CC(O)C(=O)NCCCCCCCCCCCC (centres unmarked) [Compound L0303]; 3.25E+08
CCCCCCCC/C=C\CCCCCCCCNC(=O)C(O)CN(CCCN(C)CCCN(CC(O)C(=O)NCCCCCCCC/C=C\CCCCCCCC)CC(O)C(=O)NCCCCCCCC/C=C\CCCCCCCC)CC(O)C(=O)NCCCCCCCC/C=C\CCCCCCCC (centres unmarked) [Compound L0317]; 7.03E+07
CCCCCCCCC(CCCCCC)C(=O)OCCCCOC(=O)C(O)CN(CCN(C)CCN(CC(O)C(=O)OCCCCOC(=O)C(CCCCCC)CCCCCCCC)CC(O)C(=O)OCCCCOC(=O)C(CCCCCC)CCCCCCCC)CC(O)C(=O)OCCCCOC(=O)C(CCCCCC)CCCCCCCC (centres unmarked) [Compound L0298]; 4.23E+06

Hi, could you look up IVIS for each item in my list?
1. CCCCCCCC/C=C\CCCCCCCCNC(=O)C(O)CN(CCN(C)CCN(CC(O)C(=O)NCCCCCCCC/C=C\CCCCCCCC)CC(O)C(=O)NCCCCCCCC/C=C\CCCCCCCC)CC(O)C(=O)NCCCCCCCC/C=C\CCCCCCCC (centres unmarked) [Compound L0299]
2. CCCCCCC(CCCCCC)C(=O)OCCCCOC(=O)C(O)CN(CCCN(C)CCCN(CC(O)C(=O)OCCCCOC(=O)C(CCCCCC)CCCCCC)CC(O)C(=O)OCCCCOC(=O)C(CCCCCC)CCCCCC)CC(O)C(=O)OCCCCOC(=O)C(CCCCCC)CCCCCC (centres unmarked) [Compound L0294]
3. CCCCCCCCCCOC(=O)C(O)CN(CCN(C)CCN(CC(O)C(=O)OCCCCCCCCCC)CC(O)C(=O)OCCCCCCCCCC)CC(O)C(=O)OCCCCCCCCCC (centres unmarked) [Compound L0337]
4. CCCCCCCCCCCCNC(=O)C(O)CNCCCN(C)CCCN(CC(O)C(=O)NCCCCCCCCCCCC)CC(O)C(=O)NCCCCCCCCCCCC (centres unmarked) [Compound L0288]
5. CCCCCCCCC(CCCCCC)C(=O)OCCCCCCOC(=O)C(O)CN(CCCN(C)CCCN(CC(O)C(=O)OCCCCCCOC(=O)C(CCCCCC)CCCCCCCC)CC(O)C(=O)OCCCCCCOC(=O)C(CCCCCC)CCCCCCCC)CC(O)C(=O)OCCCCCCOC(=O)C(CCCCCC)CCCCCCCC (centres unmarked) [Compound L0295]

1: 4.48E+06; 2: 1.01E+07; 3: 9.51E+05; 4: 7.18E+06; 5: 4.20E+06

---

- Tested on: mice
- protocolSummary: In vivo delivery of FLuc-mRNA lipid nanoparticles in mice, in vivo imaging (IVIS)
- conditionInfo: Fluc-mRNA LNP; route IM; organ: lung; formulation, molar ratio and N/P as in the table
Provide the reported IVIS of each item.
One number for each entry.

CCCCCCCC(CCCCCCC)OC(=O)CCCNC(=O)C(O)CN(CCCN(CC(O)C(=O)NCCCC(=O)OC(CCCCCCC)CCCCCCC)CC(O)C(=O)NCCCC(=O)OC(CCCCCCC)CCCCCCC)CCCN(CC(O)C(=O)NCCCC(=O)OC(CCCCCCC)CCCCCCC)CC(O)C(=O)NCCCC(=O)OC(CCCCCCC)CCCCCCC (stereo not shown) [Compound L0384]; 1.02E+05

For every listed record, write down its IVIS.
1. CCCCCCC(CCCCCC)C(=O)NCCNC(=O)C(O)CN(CCN(C)CCN(CC(O)C(=O)NCCNC(=O)C(CCCCCC)CCCCCC)CC(O)C(=O)NCCNC(=O)C(CCCCCC)CCCCCC)CC(O)C(=O)NCCNC(=O)C(CCCCCC)CCCCCC (stereo not shown) [Compound L0380]
2. CCCCCCCCC(CCCCCC)C(=O)OCCCCNC(=O)C(O)CN(CCCN(CC(O)C(=O)NCCCCOC(=O)C(CCCCCC)CCCCCCCC)CC(O)C(=O)NCCCCOC(=O)C(CCCCCC)CCCCCCCC)CCCN(CC(O)C(=O)NCCCCOC(=O)C(CCCCCC)CCCCCCCC)CC(O)C(=O)NCCCCOC(=O)C(CCCCCC)CCCCCCCC (stereo not shown) [Compound L0378]

["7.90E+05", "6.19E+04"]

Bench note: what IVIS did CCCCCCCC(CCCCCCC)OC(=O)CCCNC(=O)C(O)CN(CCN(C)CCN(CC(O)C(=O)NCCCC(=O)OC(CCCCCCC)CCCCCCC)CC(O)C(=O)NCCCC(=O)OC(CCCCCCC)CCCCCCC)CC(O)C(=O)NCCCC(=O)OC(CCCCCCC)CCCCCCC (stereo not shown) [Compound L0383] show?
6.63E+04

FYI, the data here is from patent US12233161B1.
